meta.source: ChEMBL document CHEMBL1201862

# Test system: SNB-78
# assay_procedure: NCI tumour cell line growth inhibition, 48 h
Active and inactive are the calls of the source. Cut-off read from the data, not from the text of the source: active = GI50 up to about 1.1 µM and inactive = higher.
recorded_endpoint: GI50

>  <molecule>
Cc1cc(N(CCC#N)CCC#N)ccc1/C=C(/NC(=O)/C=C/c1ccccc1)C(N)=O

>  <GI50>
97.1 µM (inactive)

$$$$
>  <molecule>
COc1cc(CCc2ccc(OCCN(C)C)cc2)cc(OC)c1OC

>  <GI50>
> 100 µM (inactive)

$$$$
>  <molecule>
O=c1[nH]c(=O)n(C2OC(CO)C(O)C2O)cc1OCc1ccccc1 (stereo unspecified)

>  <GI50>
> 100 µM (inactive)

$$$$
>  <molecule>
O=C(C(=O)c1cc2ccccc2[nH]1)c1cc2ccccc2[nH]1

>  <GI50>
> 347 µM (inactive)

$$$$
>  <molecule>
COC(=O)c1c/c(=N\NC(=O)CC(=O)Nc2ccc(C)cc2)c2ccccc2o1

>  <GI50>
> 100 µM (inactive)

$$$$

Moving on to another molecule below.
Request: For the molecule Nn1c(S)nnc1NNC(=O)C(=O)Nc1cc(Cl)c(Cl)cc1Cl , what GI50 is on record?
Result: > 100 µM (inactive)
